Recorded IC50, one value per entry.
Target: Integrin alpha-V/beta-5 (Homo sapiens, UniProt P06756+P18084)
Sequence (P06756 31-889 limits assumed): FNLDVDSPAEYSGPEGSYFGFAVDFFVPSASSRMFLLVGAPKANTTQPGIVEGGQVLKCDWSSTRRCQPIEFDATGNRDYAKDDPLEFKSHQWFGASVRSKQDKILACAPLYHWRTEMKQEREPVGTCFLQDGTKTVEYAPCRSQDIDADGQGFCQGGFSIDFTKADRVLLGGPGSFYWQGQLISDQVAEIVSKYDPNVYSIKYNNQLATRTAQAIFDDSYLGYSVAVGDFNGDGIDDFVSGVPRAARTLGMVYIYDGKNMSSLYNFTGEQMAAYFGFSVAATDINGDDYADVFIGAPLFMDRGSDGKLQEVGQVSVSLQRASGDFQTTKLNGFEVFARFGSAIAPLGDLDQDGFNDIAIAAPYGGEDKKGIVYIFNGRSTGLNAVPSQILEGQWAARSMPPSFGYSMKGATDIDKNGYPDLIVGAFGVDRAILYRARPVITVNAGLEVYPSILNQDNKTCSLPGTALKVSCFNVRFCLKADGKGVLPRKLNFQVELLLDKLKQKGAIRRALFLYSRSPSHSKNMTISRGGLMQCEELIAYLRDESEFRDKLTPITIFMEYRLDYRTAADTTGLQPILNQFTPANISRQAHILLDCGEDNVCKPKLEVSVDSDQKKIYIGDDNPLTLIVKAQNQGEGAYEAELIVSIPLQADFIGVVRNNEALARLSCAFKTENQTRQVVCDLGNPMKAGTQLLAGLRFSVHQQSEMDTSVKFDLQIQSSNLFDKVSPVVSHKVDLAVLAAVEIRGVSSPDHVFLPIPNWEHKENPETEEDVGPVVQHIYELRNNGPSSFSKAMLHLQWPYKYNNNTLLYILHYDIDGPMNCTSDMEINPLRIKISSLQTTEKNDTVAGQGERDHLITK
Sequence (P06756 891-1048 limits assumed): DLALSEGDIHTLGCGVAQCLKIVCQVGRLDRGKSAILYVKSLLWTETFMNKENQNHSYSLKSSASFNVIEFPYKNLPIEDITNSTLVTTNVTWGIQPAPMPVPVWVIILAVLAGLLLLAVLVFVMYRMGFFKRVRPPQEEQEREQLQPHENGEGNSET
Sequence (P18084 24-799 limits assumed): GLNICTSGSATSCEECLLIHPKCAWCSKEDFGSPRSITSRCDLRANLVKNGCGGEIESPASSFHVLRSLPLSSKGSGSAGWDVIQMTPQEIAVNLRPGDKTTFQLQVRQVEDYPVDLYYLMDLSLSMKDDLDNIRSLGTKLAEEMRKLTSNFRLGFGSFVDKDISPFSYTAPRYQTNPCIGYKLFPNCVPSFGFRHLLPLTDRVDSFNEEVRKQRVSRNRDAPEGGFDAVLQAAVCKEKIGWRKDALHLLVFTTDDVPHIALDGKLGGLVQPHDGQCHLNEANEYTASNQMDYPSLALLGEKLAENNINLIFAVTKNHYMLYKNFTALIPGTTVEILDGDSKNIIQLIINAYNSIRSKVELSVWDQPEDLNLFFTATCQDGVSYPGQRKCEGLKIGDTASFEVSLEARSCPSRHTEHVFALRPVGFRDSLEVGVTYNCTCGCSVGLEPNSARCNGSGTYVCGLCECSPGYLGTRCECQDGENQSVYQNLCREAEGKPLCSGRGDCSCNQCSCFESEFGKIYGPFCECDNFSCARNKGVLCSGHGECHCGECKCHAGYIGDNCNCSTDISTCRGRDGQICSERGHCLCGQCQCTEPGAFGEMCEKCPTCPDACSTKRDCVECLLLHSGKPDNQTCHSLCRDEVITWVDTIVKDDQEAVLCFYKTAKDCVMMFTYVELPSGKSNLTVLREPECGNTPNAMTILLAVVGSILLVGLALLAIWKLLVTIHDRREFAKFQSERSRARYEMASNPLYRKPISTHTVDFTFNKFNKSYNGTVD
Assay: Inhibitory concentration for human vitronectin binding to immobilized alphaV-beta5 integrin
Type: protein-complex assay
Kindly answer with a numeric value in nM, unit omitted.

O=C(O)C[C@H](NC(=O)C1CCN(C(=O)CCCNC2=NCCN2)CC1)c1cnc2ccccc2c1: 470

Task item: Give Integrin alpha-V/beta-5 (Homo sapiens, UniProt P06756+P18084) IC50 for `O=C(O)C[C@H](c1cnc2ccccc2c1)C1CCN(C(=O)CCCc2ccc3c(n2)NCCC3)CC1`
Reply: 36

Task item: Give Integrin alpha-V/beta-5 (Homo sapiens, UniProt P06756+P18084) IC50 for O=C(O)C[C@@H](C1CCN(C(=O)CCCc2ccc3c(n2)NCCC3)CC1)C1CNc2ccccc2C1 (single isomer, unassigned; isomer d)
Reply: 160

Task item: Give Integrin alpha-V/beta-5 (Homo sapiens, UniProt P06756+P18084) IC50 for O=C(O)C[C@@H](CC1CCN(C(=O)CCc2ccc3c(n2)NCCC3)CC1)c1cnc2c(c1)CCCC2 (stereo in doubt; 28)
Reply: 11

Task item: Give Integrin alpha-V/beta-5 (Homo sapiens, UniProt P06756+P18084) IC50 for `O=C(O)C[C@@H]1Cc2ccc(OCCCNc3ccccn3)cc2Cc2ccccc21`
Reply: 2.9

Task item: Give Integrin alpha-V/beta-5 (Homo sapiens, UniProt P06756+P18084) IC50 for COc1ccc([C@@H](CC(=O)O)CC2CCN(C(=O)CCc3ccc4c(n3)NCCC4)CC2)cn1 (stereo in doubt; 34)
Reply: 2.7

Task item: Give Integrin alpha-V/beta-5 (Homo sapiens, UniProt P06756+P18084) IC50 for O=C(O)C[C@@H](CC1CCN(C(=O)CCc2ccc3c(n2)NCCC3)CC1)c1cnc2c(c1)CCCC2 (stereo in doubt; form 1)
Reply: 1000

----------
Experiment: Plasma half-life when administered perorally at 30 mg/kg dose
Assay type: ADME, organism-based
Parameters: dose 30 mg/kg, route oral
Details: rat, po
RESULT_TYPE: half-life (h)
Kindly answer with a numeric value in h, unit omitted.

Check out these entries, answers already filled in.
O=C(O)C[C@H](NC(=O)C1CCN(C(=O)CCCNC2=NCCN2)CC1)c1cnc2ccccc2c1: 7
O=C(O)C[C@@H](C1CCN(C(=O)CCCc2ccc3c(n2)NCCC3)CC1)C1CNc2ccccc2C1 (stereo in doubt; form 1): 2
COc1ccc([C@@H](CC(=O)O)CC2CCN(C(=O)CCc3ccc4c(n3)NCCC4)CC2)cn1 (stereo in doubt; form 1): 2

Let's switch to this compound now.
Task item: What value of half-life has been reported for the following compound? `O=C(O)C[C@@H](CC1CCN(C(=O)CCc2ccc3c(n2)NCCC3)CC1)c1cnc2ccccc2c1`
Reply: 3

----------
Target: Integrin alpha-V/beta-3 (Homo sapiens, UniProt P05106+P06756)
Sequence (P05106 27-788 limits assumed): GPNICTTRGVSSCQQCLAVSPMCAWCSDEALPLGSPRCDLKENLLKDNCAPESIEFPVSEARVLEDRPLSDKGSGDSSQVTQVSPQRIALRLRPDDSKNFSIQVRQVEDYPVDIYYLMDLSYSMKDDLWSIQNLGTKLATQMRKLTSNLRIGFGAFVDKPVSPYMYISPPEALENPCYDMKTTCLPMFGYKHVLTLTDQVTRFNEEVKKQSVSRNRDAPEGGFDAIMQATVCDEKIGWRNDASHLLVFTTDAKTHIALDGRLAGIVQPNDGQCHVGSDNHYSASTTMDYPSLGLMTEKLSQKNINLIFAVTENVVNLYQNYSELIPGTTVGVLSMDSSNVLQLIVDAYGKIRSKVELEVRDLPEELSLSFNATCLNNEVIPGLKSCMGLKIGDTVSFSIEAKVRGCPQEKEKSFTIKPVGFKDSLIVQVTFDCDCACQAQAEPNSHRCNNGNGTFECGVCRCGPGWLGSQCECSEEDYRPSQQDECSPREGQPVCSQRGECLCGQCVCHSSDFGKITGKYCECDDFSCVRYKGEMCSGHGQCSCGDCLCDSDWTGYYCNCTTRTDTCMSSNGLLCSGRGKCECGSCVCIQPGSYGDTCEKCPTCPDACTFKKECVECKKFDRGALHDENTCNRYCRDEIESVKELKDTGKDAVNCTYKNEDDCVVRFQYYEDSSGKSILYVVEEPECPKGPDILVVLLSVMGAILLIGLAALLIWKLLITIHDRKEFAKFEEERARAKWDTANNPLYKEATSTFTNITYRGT
Sequence (P06756 31-889 limits assumed): as the sequence (P06756 31-889 limits assumed) above
Sequence (P06756 891-1048 limits assumed): as the sequence (P06756 891-1048 limits assumed) above
Assay: Inhibitory concentration for human vitronectin binding to immobilized alphaV-beta3 integrin
Type: protein-complex assay
pIC50: −log10 of the molar value.
Lab note: compare pIC50 against 8. Equal or greater, write Met. Smaller, write Not met.

O=C(O)C[C@@H](C1CCN(C(=O)CCCc2ccc3c(n2)NCCC3)CC1)C1CNc2ccccc2C1 (mixture of isomers): Met
O=C(O)C[C@H](NC(=O)C1CCN(C(=O)CCCNC2=NCCN2)CC1)c1cnc2ccccc2c1: Met
O=C(O)C[C@@H](C1CCN(C(=O)CCCc2ccc3c(n2)NCCC3)CC1)C1CNc2ccccc2C1 (stereo in doubt; form 2): Not met
O=C(O)C[C@@H]1Cc2ccc(OCCCNc3ccccn3)cc2Cc2ccccc21: Met
CN1CC(C(CC(=O)O)CC2CCN(C(=O)CCc3ccc4c(n3)NCCC4)CC2)Cc2ccccc21 (racemic): Not met
O=C(O)C[C@@H](CC1CCN(C(=O)CCc2ccc3c(n2)NCCC3)CC1)c1cnc2c(c1)CCCC2 (stereo in doubt; form 4): Not met
O=C(O)C[C@@H](CC1CCN(C(=O)CCc2ccc3c(n2)NCCC3)CC1)c1cnc2ccccc2c1: Met
O=C(O)C[C@H](NC(=O)C1CCN(C(=O)CCc2ccc3c(n2)NCCC3)CC1)c1cnc2ccccc2c1: Met
O=C(O)C[C@@H](C1CCN(C(=O)CCCc2ccc3c(n2)NCCC3)CC1)C1CNc2ccccc2C1 (single isomer, unassigned; isomer b): Not met
O=C(O)C[C@@H](C1CCN(C(=O)CCCc2ccc3c(n2)NCCC3)CC1)C1CNc2ccccc2C1 (single isomer, unassigned; isomer d): Met

Task item: Hi team, for O=C(O)C[C@@H](C1CCN(C(=O)CCCc2ccc3c(n2)NCCC3)CC1)C1CNc2ccccc2C1 (stereo in doubt; form 1) , is the recorded pIC50 at or above 8?
Reply: Met

Task item: Hi team, for `O=C(O)C[C@H](c1cnc2ccccc2c1)C1CCN(C(=O)CCCc2ccc3c(n2)NCCC3)CC1` , is the recorded pIC50 at or above 8?
Reply: Met

Task item: Hi team, for O=C(O)C[C@@H](CC1CCN(C(=O)CCc2ccc3c(n2)NCCC3)CC1)c1cnc2c(c1)CCCC2 (stereo in doubt; 28) , is the recorded pIC50 at or above 8?
Reply: Met

Task item: Hi team, for COc1ccc([C@@H](CC(=O)O)CC2CCN(C(=O)CCc3ccc4c(n3)NCCC4)CC2)cn1 (stereo in doubt; 34) , is the recorded pIC50 at or above 8?
Reply: Met

Task item: Hi team, for O=C(O)C[C@@H](CC1CCN(C(=O)CCc2ccc3c(n2)NCCC3)CC1)c1cnc2c(c1)CCCC2 (stereo in doubt; form 1) , is the recorded pIC50 at or above 8?
Reply: Not met

Task item: Hi team, for COc1ccc([C@@H](CC(=O)O)CC2CCN(C(=O)CCc3ccc4c(n3)NCCC4)CC2)cn1 (stereo in doubt; form 1) , is the recorded pIC50 at or above 8?
Reply: Met

----------
Assay: Oral bioavailability in rat
Assay type: ADME, organism-based
Settings: in vivo
RESULT_TYPE: bioavailability (%)
Kindly answer with a numeric value in %, unit omitted.

O=C(O)C[C@H](c1cnc2ccccc2c1)C1CCN(C(=O)CCCc2ccc3c(n2)NCCC3)CC1: 1
O=C(O)C[C@H](NC(=O)C1CCN(C(=O)CCCNC2=NCCN2)CC1)c1cnc2ccccc2c1: 4

Let's switch to this compound now.
Task item: What value of bioavailability has been reported for the following compound? `O=C(O)C[C@@H](CC1CCN(C(=O)CCc2ccc3c(n2)NCCC3)CC1)c1cnc2ccccc2c1`
Reply: 4

----------
Target: Integrin alpha-V/beta-5 (Homo sapiens, UniProt P06756+P18084)
Experiment: Inhibitory concentration for human vitronectin binding to immobilized alphaV-beta5 integrin
Assay type: protein-complex assay
RESULT_TYPE: IC50 (nM)
Kindly answer with a numeric value in nM, unit omitted.

Check out these entries, answers already filled in.
O=C(O)C[C@@H](C1CCN(C(=O)CCCc2ccc3c(n2)NCCC3)CC1)C1CNc2ccccc2C1 (single isomer, unassigned; isomer b): 2500
O=C(O)C[C@@H](C1CCN(C(=O)CCCc2ccc3c(n2)NCCC3)CC1)C1CNc2ccccc2C1 (stereo in doubt; form 1): 44

Let's switch to this compound now.
Task item: What value of IC50 has been reported for the following compound? COc1ccc([C@@H](CC(=O)O)CC2CCN(C(=O)CCc3ccc4c(n3)NCCC4)CC2)cn1 (stereo in doubt; form 1)
Reply: 3.1
